- assayed.system: Human BCMA (human) (UniProt Q02223)
- measurement.protocol: SPR, IgG immobilised, huBCMA analyte, 25 C
Kd values for the binders below.
measurement.kind: Kd (nM)

binder	measurement.kind	result.unit	recorded.value
L1.GDF/L3.NY/H3.AP (antibody, V domains shown) VH: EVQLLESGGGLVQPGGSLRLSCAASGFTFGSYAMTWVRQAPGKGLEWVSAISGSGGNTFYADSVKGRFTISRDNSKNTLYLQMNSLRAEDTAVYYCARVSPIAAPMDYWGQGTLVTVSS VL: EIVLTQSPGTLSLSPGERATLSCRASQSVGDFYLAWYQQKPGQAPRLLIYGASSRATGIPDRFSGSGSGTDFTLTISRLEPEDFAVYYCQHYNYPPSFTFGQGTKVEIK	Kd	nM	1
L1.LGF/L3.KW/H3.AP (antibody, V domains shown) VH: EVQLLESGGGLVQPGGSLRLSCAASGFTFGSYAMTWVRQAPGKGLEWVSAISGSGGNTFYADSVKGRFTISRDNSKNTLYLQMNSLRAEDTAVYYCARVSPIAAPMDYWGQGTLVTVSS VL: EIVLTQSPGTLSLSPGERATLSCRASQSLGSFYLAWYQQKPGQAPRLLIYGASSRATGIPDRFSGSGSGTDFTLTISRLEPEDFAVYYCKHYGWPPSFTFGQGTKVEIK	Kd	nM	2.44
L1.LGF/L3.PY/H3.AP (antibody, V domains shown) VH: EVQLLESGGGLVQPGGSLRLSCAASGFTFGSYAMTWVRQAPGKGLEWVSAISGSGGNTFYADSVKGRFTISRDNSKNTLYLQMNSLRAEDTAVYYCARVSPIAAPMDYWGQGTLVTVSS VL: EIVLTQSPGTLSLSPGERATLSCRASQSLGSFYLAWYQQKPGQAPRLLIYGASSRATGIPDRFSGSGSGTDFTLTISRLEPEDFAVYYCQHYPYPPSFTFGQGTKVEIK	Kd	nM	2.12
L1.GDF/L3.KW/H3.AP (antibody, V domains shown) VH: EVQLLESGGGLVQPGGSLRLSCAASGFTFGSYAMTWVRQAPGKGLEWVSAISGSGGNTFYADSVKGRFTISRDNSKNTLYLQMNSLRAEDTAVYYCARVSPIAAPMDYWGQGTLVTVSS VL: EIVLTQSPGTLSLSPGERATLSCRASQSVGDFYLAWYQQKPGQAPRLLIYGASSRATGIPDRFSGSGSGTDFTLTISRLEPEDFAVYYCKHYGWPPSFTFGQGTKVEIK	Kd	nM	3.93
